Test system: MDA-MB-231 breast
Experiment notes: NCI tumour cell line growth inhibition, 48 h

{"Compound": "COc1ccc(C2CC(c3ccc(Nc4ccnc5cc(Cl)ccc45)cc3)=NN2C=O)cc1 (stereo not given)", "Relation symbol": ">", "TGI / µM": 100}
{"Compound": "COc1ccc2c(c1)-c1c(c3cc(OC)ccc3n1CCCN(C)C)CC2", "Relation symbol": "=", "TGI / µM": 30.5}
{"Compound": "COc1ccc2nc3c([N+](=O)[O-])ccc4c3c(c2c1)NCCN4CCN(C)C", "Relation symbol": "=", "TGI / µM": 1.88}
{"Compound": "O=[N+]([O-])c1ccc(N/N=C2/CC3=C2CCCCCCCCCC3)c([N+](=O)[O-])c1", "Relation symbol": ">", "TGI / µM": 100}
{"Compound": "COC(=O)c1ccc(/C=C(\\c2ccc([N+](=O)[O-])o2)S(=O)(=O)c2ccc(NC(C)=O)cc2)o1", "Relation symbol": "=", "TGI / µM": 5.77}
{"Compound": "Cc1ccc(C=C2C(Cl)=C(Cl)C(Cl)=C2Cl)cc1", "Relation symbol": "=", "TGI / µM": 4.76}
{"Compound": "COc1ccccc1C(=O)NO", "Relation symbol": ">", "TGI / µM": 100}
{"Compound": "Cc1cc(C)nc(NS(=O)(=O)c2ccc(Nc3c4ccccc4nc4c(C(=O)NC(CO)(CO)CO)cccc34)cc2)n1", "Relation symbol": ">", "TGI / µM": 100}
{"Compound": "N#Cc1c(NC(=O)c2ccc(F)cc2)sc2c1CCCC2", "Relation symbol": ">", "TGI / µM": 25}
{"Compound": "COc1ccc2c(=O)cc(-c3ccc(OC)c(OC)c3OC)oc2c1", "Relation symbol": ">", "TGI / µM": 100}

====

System: U251 CNS
Experiment notes: NCI tumour cell line growth inhibition, 48 h
Below, each of the compounds is paired with its reported TGI value.
Recorded metric: TGI

{"Compound": "N#Cc1c(NC(=O)c2ccc(F)cc2)sc2c1CCCC2", "Reported measurement": "> 25 µM"}
{"Compound": "CN(C)CC(=O)Nc1ccc2ncnc(Nc3ccc(Oc4cccc(C(F)(F)F)c4)c(Cl)c3)c2c1", "Reported measurement": "3.99 µM"}
{"Compound": "O=C(c1ccccc1Cl)n1oc2ccccc2c1=O", "Reported measurement": "> 100 µM"}
{"Compound": "CCCCNS(=O)(=O)c1n[nH]c(=O)[nH]c1=O", "Reported measurement": "> 100 µM"}
{"Compound": "C=CC(=O)N1C[C@@H]2CCOc3c(Cl)c(-c4c(O)cccc4F)c(F)c4ncnc(c34)N2C[C@H]1C", "Reported measurement": "36.2 µM"}
{"Compound": "C/C(N)=C/C(=O)c1[nH]c(C(=O)O)cc1C1CCN(Cc2ccccc2)C1=O (stereo unspecified)", "Reported measurement": "> 100 µM"}
{"Compound": "COc1cc(/C=N/c2nc3cc4sc(/N=C/c5cc(OC)c(OC)c(OC)c5)nc4cc3s2)cc(OC)c1OC", "Reported measurement": "> 100 µM"}
{"Compound": "CN(C)CCNC(=O)c1cc(Cl)cc2cc3ccccc3nc12", "Reported measurement": "8.4 µM"}
{"Compound": "NC(=S)N/N=C1\\c2ccccc2-c2c(F)c(F)c(F)c(F)c21", "Reported measurement": "10.2 µM"}
{"Compound": "CC(=O)c1cc2c(s1)C(=O)c1sccc1C2=O", "Reported measurement": "0.0556 µM"}
{"Compound": "CN(C)CCC(CCN(C)C)=NO", "Reported measurement": "> 100 µM"}

====

System: SN12C renal
Experiment notes: NCI tumour cell line growth inhibition, 48 h; in the data active = GI50 below about 0.43 µM; inactive = the rest
Classes used: y = active, n = inactive

{"Smiles code": "C#CC(=O)Nc1cccc2c1cc(C)n2-c1nc2c(c(NCc3ccccc3)n1)CCCC2", "Answer label": "y"}
{"Smiles code": "COC(=O)[C@]12CC[C@@H](C)[C@H](C)[C@@H]1C1=CC[C@@H]3[C@@]4(C)C[C@@H](OC(=O)/C=C/c5ccccc5)[C@H](O)[C@@](C)(CO)[C@@H]4[C@H](O)C[C@@]3(C)[C@]1(C)CC2", "Answer label": "n"}
{"Smiles code": "COc1ccc(/C=C2\\COc3ccc(O)c(O)c3C2=O)c(OC)c1OC", "Answer label": "n"}
{"Smiles code": "CN(C)CCCSc1ccccc1NC1=C(Cl)C(=O)C(Nc2ccccc2SCCCN(C)C)=C(Cl)C1=O", "Answer label": "n"}
{"Smiles code": "Cn1cc(-c2nc(-c3c[nH]c4ncccc34)cs2)c2ccccc21", "Answer label": "n"}
{"Smiles code": "O=Nc1c(-c2c(O)[nH]c3cc(Br)ccc23)[nH]c2ccccc12", "Answer label": "n"}
{"Smiles code": "C=CC(=O)N1C[C@@H]2CCOc3c(Cl)c(-c4c(O)cccc4F)c(F)c4ncnc(c34)N2C[C@H]1C", "Answer label": "n"}
{"Smiles code": "O=c1c2ccccc2c(/C=N\\NC2=NCCN2)c2oc3ccccc3n12", "Answer label": "n"}
{"Smiles code": "Clc1cc(Cl)c(OCCCCCCN2CCNCC2)c(Cl)c1", "Answer label": "n"}
{"Smiles code": "CC(C)(C)c1cc(/C=N/NC(=O)c2ccccc2NC(=O)c2cccs2)c(O)c(C(C)(C)C)c1", "Answer label": "n"}

====

Test system: OVCAR-8 ovarian
Experiment notes: NCI tumour cell line growth inhibition, 48 h
# GI50 per entry
Recorded metric: GI50

{"Compound": "NC1CCCCC1N.O=C1C=C/C(=C(/c2ccc(O)c(Br)c2)c2ccccc2S(=O)(=O)[O-])C=C1Br.O=C1C=C/C(=C(/c2ccc(O)c(Br)c2)c2ccccc2S(=O)(=O)[O-])C=C1Br.[Pt+4]", "Recorded metric": "GI50", "Reported measurement": "1.27 µM"}
{"Compound": "COc1ccc(NC2=C(I)C(=O)c3ncccc3C2=O)cc1", "Recorded metric": "GI50", "Reported measurement": "1.84 µM"}
{"Compound": "Cc1ccc2cccc(OC(=O)Nc3cccc(C(F)(F)F)c3)c2n1", "Recorded metric": "GI50", "Reported measurement": "3.5 µM"}
{"Compound": "O=[N+]([O-])c1ccc(C(Cl)C(Cl)c2ccc(C(Cl)C(Cl)c3ccc([N+](=O)[O-])cc3[N+](=O)[O-])cc2)c([N+](=O)[O-])c1 (centres undefined)", "Recorded metric": "GI50", "Reported measurement": "0.282 µM"}
{"Compound": "COc1cc([N+](=O)[O-])c(OC)cc1-c1nc2sc(C)cn2c1/C(N)=N/C(=N)N", "Recorded metric": "GI50", "Reported measurement": "35.7 µM"}
{"Compound": "Cn1cc(-c2nc(-c3c[nH]c4ncccc34)cs2)c2ccccc21", "Recorded metric": "GI50", "Reported measurement": "38.2 µM"}
{"Compound": "C#CC(=O)Nc1cccc2c1cc(C)n2-c1nc2c(c(NCc3ccccc3)n1)CCCC2", "Recorded metric": "GI50", "Reported measurement": "0.136 µM"}
{"Compound": "Cn1cc(C2=C(c3cn(-c4ccccc4)c4ccccc34)C(=O)NC2=O)c2ccccc21", "Recorded metric": "GI50", "Reported measurement": "19.5 µM"}
{"Compound": "COC(=O)c1cc2oc(/C=C3/SC(=S)N(N)C3=O)cc2n1Cc1ccccc1", "Recorded metric": "GI50", "Reported measurement": "3.24 µM"}

====

Tested on: RPMI-8226 leukemia
Experiment notes: NCI tumour cell line growth inhibition, 48 h
Reported TGI values for a set of molecules
Recorded metric: TGI

{"Molecule": "CCCCCCn1c(SC)nc(COC(=O)NC)c1COC(=O)NC", "Reported measurement": "67.7 µM"}
{"Molecule": "COc1ccc(-c2nc3c(nc2-c2ccc(OC)cc2)C(N)=NS(=O)(=O)N3)cc1", "Reported measurement": "> 100 µM"}
{"Molecule": "CCOC(=O)CC[C@H](NC(=O)N[C@H](C)c1ccccc1)C(=O)OCC", "Reported measurement": "> 100 µM"}
{"Molecule": "CC(=O)OCC1OC(N2C(c3ccccc3)=CC(c3ccco3)C(C#N)=C2S)C(OC(C)=O)C(OC(C)=O)C1OC(C)=O (centres undefined)", "Reported measurement": "> 45 µM"}
{"Molecule": "Cn1c(=O)nc2n(-c3ccc(Cl)cc3)c3cc(Cl)ccc3nc-2c1=O", "Reported measurement": "22.8 µM"}
{"Molecule": "O=[N+]([O-])c1ccc(C(Cl)C(Cl)c2ccc(C(Cl)C(Cl)c3ccc([N+](=O)[O-])cc3[N+](=O)[O-])cc2)c([N+](=O)[O-])c1 (centres undefined)", "Reported measurement": "0.509 µM"}
{"Molecule": "N#CCC(=O)N/N=C1/C(=O)N(c2cc(Cl)ccc2Cl)C(=O)C(=O)C1c1nc2ccccc2s1 (centres undefined)", "Reported measurement": "> 100 µM"}
{"Molecule": "CCCCCCCCCCCCCCCCCCNc1ccn(C2OC(CO)C(OP(=O)(O)OCC(O)COP(=O)(O)OCC3OC(n4cc(F)c(NCCCCCCCCCCCCCCCCCC)nc4=O)CC3O)C2O)c(=O)n1 (centres undefined)", "Reported measurement": "> 50 µM"}
{"Molecule": "O=C(NC(Cc1ccc(Br)cc1)C(=O)O)c1ccc(I)cc1 (centres undefined)", "Reported measurement": "> 100 µM"}
